- Test system: SF-295 CNS
- experiment_summary: NCI-60 one-dose screen, 48 h
- protocol_conditions: 10 µM unless noted
Compounds without any hit were thinned out: in the full panel of roughly 83,000, 20% have a hit. Calls of active or inactive are those of the source. How the source made its calls: active means growth percent below 10; inactive means the rest.
Please answer using one outcome listed in active, inactive

| compound | class_name |
| --- | --- |
| N#Cc1c(-c2ccc(Cl)cc2)nc(SCC(=O)NC2=NN=C(c3ccccc3)CS2)[nH]c1=O | inactive |

Fill in: this test's call for O=C(Cc1ccccc1)Nc1nc(O)c(/C=C2\C(=O)C=Cc3ccccc32)s1 is ___
inactive

Fill in: this test's call for C=C1C(=O)O[C@H]2[C@H]1CC/C(COC(=O)N[C@H]1C[C@H](O[C@H]3C[C@](O)(C(=O)CO)Cc4c(O)c5c(c(O)c43)C(=O)c3c(OC)cccc3C5=O)O[C@@H](C)[C@H]1O)=C\CC[C@@]1(C)O[C@@H]21 is ___
inactive

Fill in: this test's call for O=C(/C=C(/C=C/c1cccc2[nH]ccc12)OB(F)F)/C=C/c1cccc2[nH]ccc12 is ___
active

Fill in: this test's call for COC1=CC(c2ccc[nH]2)=N/C1=C\c1[nH]c(C)c(C(=O)OCc2ccccc2)c1C is ___
active

Fill in: this test's call for COC(=O)c1ccc2c(c1)C(=O)c1c-2n(CCCN)c(=O)c2cc([N+](=O)[O-])ccc12 is ___
active

Fill in: this test's call for N#CCSc1nnc2n(Cc3ccccc3)c(=O)c3c4c(sc3n12)CCCC4 is ___
inactive

Fill in: this test's call for CC(C)c1ccc(COCc2cc(CN3CCCC3)c(O)c3ncccc23)cc1 is ___
active

Fill in: this test's call for O=C1C(Cl)=C(Nc2ccc(O)cc2)C(=O)N1Cc1ccc(Cl)cc1 is ___
inactive

Fill in: this test's call for O=C1Nc2ccccc2/C1=C\c1nc(-c2ccccc2)n2ccccc12 is ___
inactive

Fill in: this test's call for CC(C)(C)c1cc(-c2nc3ccc(N4CCN(S(C)(=O)=O)CC4)cc3[nH]2)cc(C(C)(C)C)c1O is ___
inactive

Fill in: this test's call for Fc1cccc(CNc2c3ccccc3nc3ccccc23)c1F is ___
inactive

Fill in: this test's call for COc1cc(OC)cc(C2=C3CC[C@@H]4[C@H](CC[C@]5(C)C(=O)CC[C@@H]45)C3=CC3C(O)c4cccnc4N4C(=O)COC234)c1 (some centres not stated) is ___
inactive

Fill in: this test's call for O=C(CN1C(=O)CCC1=O)Nc1ncc(Cc2ccc(F)cc2)s1 is ___
inactive

Fill in: this test's call for Nc1ncnc2c1N=C(c1ccc3c(c1)OCO3)CC(c1cccc(Nc3ccnc4cc(Cl)ccc34)c1)N2 (configuration not stated) is ___
inactive

Fill in: this test's call for O=C(CCc1nnc(Cn2cnc3nc[nH]c3c2=O)o1)c1nc2ncccc2[nH]1 is ___
inactive

Fill in: this test's call for CCN(CC)CCCN1C(=O)c2c(c(C)c3c(oc4cc(O)ccc43)c2C)C1=O is ___
inactive

Fill in: this test's call for Oc1c(Cl)cc(Cl)c2ccc(Cn3cc(-c4ccc(C(F)(F)F)cc4)nn3)nc12 is ___
inactive

Fill in: this test's call for CCNc1cc(-c2cccc(OC(F)(F)F)c2)nc2ccc(N3CCCC3)cc12 is ___
inactive

---

- Test system: HOP-62 NSCLC
- experiment_summary: NCI-60 one-dose screen, 48 h (100 = growth as untreated, 0 = no growth, -100 = all killed)
- protocol_conditions: 10 µM unless noted
Compounds without any hit were thinned out: in the full panel of roughly 83,000, 20% have a hit. Activity calls are given as the source filed them. The calls were made as follows: active = growth percent below 10; inactive = the rest.
metric_name: growth

| compound | growth |
| --- | --- |
| CN1C(=O)N(C)C2Nn3c(s/c(=C\c4ccc(C(F)(F)F)cc4)c3=O)=NC21 (stereo not drawn) | 115% (inactive) |
| O=C(Cn1c(=O)sc2nc3ccccc3nc21)Nc1ncc(Cc2cccc(Cl)c2Cl)s1 | 97.2% (inactive) |

# next compound below
Fill in the blank: the reported growth of CCOC(=O)c1cnc2ccccc2c1Cl is ____.
99.6% (inactive)

---

The following compounds are shown together with reported growth values.
- Tested on: SNB-19 CNS
- experiment_summary: NCI-60 one-dose screen, 48 h (100 = growth as untreated, 0 = no growth, -100 = all killed)
- protocol_conditions: 10 µM unless noted
- Method: Growth inhibition of the SNB-19 human tumor cell line is measured as a screen for anti-cancer activity. Cells are grown in 96 well plates and exposed to the test compound for 48 hours. Compounds are tested at a single concentration, which is 10^-5 M for most compounds. The reported endpoint is percent growth (GI% or GIPRCNT), where numbers from 0 - 100% represent growth inhibition, and numbers from -100% - 0 represent cell death. For example, a value of 40 represents 60% growth inhibition. […]
Compounds without any hit were thinned out: in the full panel of roughly 83,000, 20% have a hit.
Give just the number in %; leave the unit off.

Answered cases to consult:
| compound_string | metric_name | endpoint_result |
| --- | --- | --- |
| S=C1CCSC(=S)N1CCCN1C(=S)CCSC1=S | growth | 89.7 |
| Brc1ccc(-n2cc(-c3nn[nH]n3)c(-c3cccs3)n2)cc1 | growth | 90.9 |

# next compound below
Fill in the blank: the reported growth of O=C1/C(=C/c2cccs2)SC(=S)N1CCCN1CCOCC1 is ____.
92.5

---

- Test system: NCI-H226 lung
- experiment_summary: NCI-60 one-dose screen, 48 h
- protocol_conditions: 10 µM unless noted
The panel holds about 83,000 compounds, 20% with a hit somewhere; the sample as a whole holds those more often. The source made the active and inactive calls. The calls were made as follows: active = growth percent below 10; inactive = the rest.
Please answer using one outcome listed in active, inactive

Look over these answered cases.
| compound | class_name |
| --- | --- |
| O=C(CCC(=O)N/N=C/c1ccccc1O)N/N=C/c1ccccc1O | inactive |
| CCS/C(Nc1ccccc1)=C(\C#N)C(=O)N/N=C/c1ccc(Cl)cc1Cl | inactive |

Fill in: this test's call for CC(=O)[C@@H]1CCC=C2CC[C@]3(C)[C@@H](CC[C@@H]4[C@@]5(C)CCCNC(C)(C)[C@@H]5CC[C@]43C)[C@H]21 is ___
inactive

Fill in: this test's call for CCN1CCN(Cc2cn(CC(=O)Nc3ccc4c(ccn4Cc4ccccc4)c3)nn2)CC1 is ___
inactive

Fill in: this test's call for COc1ccc(-c2cn(-c3cc(OC)c(OC)c(OC)c3)c(=O)n2C(C)=O)cc1 is ___
inactive

Fill in: this test's call for CN1CCN(C(=O)OCc2ccc3c(Cl)cc(Cl)c(O)c3n2)CC1 is ___
inactive

Fill in: this test's call for O=C1COCCN1c1ccc(Nc2nc(Cl)nc(OCc3cn(Cc4ccccc4)nn3)n2)cc1 is ___
inactive

---

- Test system: NCI-H226 lung
- experiment_summary: NCI-60 one-dose screen, 48 h
- protocol_conditions: 10 µM unless noted
About 83,000 compounds went through this panel and 20% of them were active in at least one assay; those are over-represented in the sample as a whole. Active and inactive are the calls of the source. Rule for the calls: active = growth percent below 10; inactive = the rest.
Please answer using one outcome listed in active, inactive

| compound | class_name |
| --- | --- |
| CCCCCCNC(=O)Oc1ccc(/C(=C(/C)Cc2ccc(OC)cc2)c2ccc(OCCCN(C)C)cc2)cc1 | inactive |
| CC1=C(Nc2ccc(N3CCN(C)CC3)cc2)C(=O)c2cncnc2C1=O | inactive |
| O=C1NCCC12CCN(c1c(Cl)cncc1-c1ccc(O)cc1)CC2 | inactive |
| CCN1C(=O)N(CC)C2C1NN=c1s/c(=C\c3cccc([N+](=O)[O-])c3)c(=O)n12 (stereo unspecified) | inactive |
| C=C1C(=O)O[C@H]2[C@H]1CC/C(COC(=O)CCSCCC(=O)OC/C1=C/CC[C@@]3(C)O[C@H]3[C@H]3OC(=O)C(=C)[C@@H]3CC1)=C\CC[C@@]1(C)O[C@@H]21 | active |

Fill in: this test's call for O=S(=O)(Nc1cc(Br)c(O)c2ccccc12)c1ccc(F)cc1 is ___
inactive

Fill in: this test's call for Cc1ccc(-c2csc(NC(=O)CN3CCN(c4cc5c(cc4F)c(=O)c(C(=O)O)cn5C4CC4)CC3)n2)cc1 is ___
inactive

Fill in: this test's call for COc1ccc(C2c3sc4c(F)cccc4c3Oc3nc[nH]c(=O)c32)cc1 (stereo unspecified) is ___
inactive

---

- System: HCT-15 colon
- experiment_summary: NCI-60 one-dose screen, 48 h (100 = growth as untreated, 0 = no growth, -100 = all killed)
- protocol_conditions: 10 µM unless noted
This is part of a sample that, as a whole, favours compounds with a hit. Of some 83,000 tested, about 20% had one in any assay.
Threshold rule: growth greater than or equal to 90% is t; below that, f.

| compound_string | experimental_system | class_name |
| --- | --- | --- |
| COc1ccc2[nH]cc(-c3nc(-c4c[nH]c5ccncc45)cs3)c2c1 | HCT-15 colon | f |
| CN1CCN(c2ccc(NC(=O)c3nc4ccc5[nH]ncc5c4c4c3CCCC4)cc2C(F)(F)F)CC1 | HCT-15 colon | f |
| COc1ccc(C(=S)N2CCN(c3ccccc3Cl)CC2)cc1OC | HCT-15 colon | t |
| O=C1/C(=C/c2ccc(-c3ccc(Br)cc3)o2)SC(=S)N1CCc1ccc(O)cc1 | HCT-15 colon | f |
| Cc1oc(-c2ccc(Cl)cc2)nc1/C=C/C(=O)c1ccccc1 | HCT-15 colon | t |
| CN(C)c1ccc(/C=C/C(=O)c2ccc(-n3cc(CN4CCN(c5cc6c(cc5F)c(=O)c(C(=O)O)cn6C5CC5)CC4)nn3)cc2)cc1 | HCT-15 colon | f |
| CC(C)n1cnc2c(=S)nc[nH]c21 | HCT-15 colon | t |

Consider the record given below.
# check: growth of N#C/C(=C\c1ccc(-c2ccc(Cl)cc2)o1)C(=O)Nc1ncc(Cc2ccc(Cl)cc2)s1 is greater than or equal to 90%
f
